- PROCEDURE SUMMARY: 1-Octanol-water distribution coefficient, log D of the compound at pH 7.4
- Type: physicochemical
- MEASUREMENT CONDITIONS: 1-octanol/water, read-out: logD
Where a SMILES comes first, the peptide text is derived from it.
Field: logD. Provide a value for each of the molecules that follow.

Req: Could you tell me which logD is on file for COC1=CC(=O)C[C@@H](C)[C@]12Oc1c(Cl)c(OC)cc(OC)c1C2=O [GRISEOFULVIN] ?
Resp: 2.47

Req: Another molecule: OC[C@H]1OC(O)[C@H](O)[C@@H](O)[C@@H]1O (stereo partly drawn) [DEXTROSE]
Resp: -2.83

Req: How about this molecule: N=C(N)NCC1COc2ccccc2O1 (stereo not drawn) [GUANOXAN]
Resp: -0.83

Req: Input Cc1ccnc2c1NC(=O)c1cccnc1N2C1CC1 [NEVIRAPINE]
Resp: 1.81

Req: Same question, CC(=O)Nc1ccc(OCC(O)CNC(C)C)cc1 (stereo not drawn) [PRACTOLOL] this time
Resp: -1.4

Req: OC[C@@H](O)[C@@H](O)[C@H](O)[C@H](O)CO [MANNITOL] ?
Resp: -3.1

Req: And then CSc1ccc2ncn(/C=C/C(=O)O)c(=O)c2c1 , what is it?
Resp: -1.05

Req: Same read-out for CC(=O)CC(c1ccccc1)c1c(O)c2ccccc2oc1=O (stereo not drawn) [WARFARIN] ?
Resp: 0.9

Req: What do you have for CC(C)n1c(/C=C/C(O)CC(O)CC(=O)O)c(-c2ccc(F)cc2)c2ccccc21 (stereo not drawn) [FLUVASTATIN] ?
Resp: 1.09

Req: Now give it for O=C1NC(=O)C(c2ccccc2)(c2ccccc2)N1 [PHENYTOIN] too.
Resp: 2.5

Req: Param item: CN/C(=N/CCSCc1nc[nH]c1C)NC#N [CIMETIDINE]
Resp: -0.4

Req: Check O=C(O)c1ccccc1O [SALICYLIC ACID] too.
Resp: -1.44

Req: Param item: NCC(=O)N1CCC[C@H]1C(=O)O [GLYCYL PROLINE] (H-Gly-Pro-OH)
Resp: -3.32

Req: Also COC(=O)c1ccccc1-c1c2ccc(=N)cc-2oc2cc(N)ccc12 [RHODAMINE123] , if possible.
Resp: 0.53

Req: // repeat for CC(C)(C)NCC(O)COc1ccc(NC(=O)NC2CCCCC2)cc1 (stereo not drawn) [TALINOLOL] and report
Resp: 1.1

Req: // repeat for CNC[C@H](O)c1ccc(O)c(O)c1 [EPINEPHRINE] and report
Resp: -2.59

Req: Try this molecule too: CN1C(C(=O)Nc2ccccn2)=C(O)c2ccccc2S1(=O)=O [PIROXICAM]
Resp: 0

Req: Thanks! And CC(C)(C)S(=O)(=O)C[C@@H](Cc1ccccc1)C(=O)N[C@@H](Cc1cnc[nH]1)C(=O)N[C@@H](CC1CCCCC1)[C@@H](O)[C@@H](O)C1CC1 ?
Resp: 2.75
